Target: V-ATPase (purified from enterococci or recombinant E. coli) (Enterococcus hirae, UniProt P43439+P43457)
Construct: made in house; host or cells: Enterococcus hirae (native) or recombinant E. coli
Assay: ATPase activity measurement (molybdenum blue method, primary screening)
Assay type: biochemical
Conditions: Table 2; inhibition of V-ATPase ATPase activity, pH 8.5 buffer; read-out: IC50
QUANTITY: pIC50
Worth noting: pIC50 values are minus log10 of concentrations stated in mol/L.

Below: 3 compounds and their reported pIC50.
CC(C)CN(CC(C)C)c1ccc([N+](=O)[O-])cc1/C=N/Nc1ccccc1 [Compound V-105] :: 6.00
CC1(C)CC2(CC(C)(C)c3cc(O)c(O)cc32)c2cc(O)c(O)cc21 [Compound V-124] :: 6.52
CCOc1ccc2nc3cc(N)ccc3c(N)c2c1 [Compound V-170] :: 5.00

// lookup pIC50 for CCCOc1ccc(/C=N/Nc2nc3ccccc3[nH]2)c(OCCC)c1 [Compound V-289]
6.22
